Values were extracted from patent US6323185.

target: HIV-1 integrase wild-type (IN1-288) (HIV-1, UniProt P12497 P12497:1148-1435)
assay_notes: inhibition; 3'-processing; strand transfer 0.123 uM
details: one tetrad disrupted
quantity_kind: pIC50
Note on units: pIC50 is unitless, being -log10 of a concentration expressed in mol/L.

Qu. Hello, please tell me recorded pIC50 for this one: GTGATGGGTGGGTGGGT (ssDNA, PS at first and last linkages) [T30526]
Ans. 6.70
